FYI, the data here is from patent US8008547B2.

Measurement Notes: Standard protocol for determination of kcat and KM (continuous spectrophotometric assay, Acetyl CoA hydrolysis at 235 nm)
Format: biochemical
Experimental Parameters: purified protein; about 23° C.; 20 mM HEPES pH 6.8, 10% ethylene glycol, 0.2 mM acetyl CoA
Description: KM was calculated from the initial reaction rates obtained from concentrations of glyphosate ranging from 0.125 to 10 mM, using the Lineweaver-Burke transformation of the Michaelis-Menten equation. kcat/KM was determined by dividing the value determined for kcat by the value determined for KM. Using this methodology, kinetic parameters for a number of GAT polypeptides exemplified herein were determined. […]
Assay Readout: Kcat (s⁻¹)
Record the value in s⁻¹, omitting the unit from your answer.

Worked set:
>>> assay_value("SEQ ID NO: 284: GAT polypeptide (protein, 11G3, GAT polypeptide) MIEVKPINAEDTYEIRHRILRPNQPLEACMYETDLLGGTFHLGGYYQGKLISIASFHQAEHSELEGQKQYQLRGMATLEGYREQKAGSTLIRHAEELLRKKGADLLWCNARTSASGYYEKLGFSEQGGVYDIPPIGPHILMYKKLA")
0.26
>>> assay_value("SEQ ID NO: 436: GAT polypeptide (protein, 9C6, GAT polypeptide) MIEVKPINAEDTYEIRHRILRPNQPLEACMYETDLLGGTFHLGGYYQGKLISIASFHNAEHSELEGQKQYQLRGMATLEGYREQKAGSTLIRHAEELLRKKGADLLWCNARTSVSGYYEKLGFSEQGEVYDIPPVGPHILMYKKLA")
0.217
>>> assay_value("SEQ ID NO: 475: GAT polypeptide (protein, 1_2H8, GAT polypeptide) MIEVKPINAEETYELRHKILRPNQPLEACMYETDLLRGAFHLGGFYRGKLISIASFHQADHSELQGQKQYQLRGMATLEGYREQKAGSTLIRHAEQILRKRGADLLWCNARTSAAGYYKKLGFSEHGEIFETPPVGPHILMYKRLT")
2.35
>>> assay_value("SEQ ID NO: 499: GAT polypeptide (protein, 6_1F11, GAT polypeptide) MIEVKPINAEDTYELRHKILRPNQPLEVCMYETDLLRGAFHLGGFYRGKLISIASFHQAEHSDLQGQKQYQLRGMATLEGYREQKAGSSLIRHAEQILRKRGADMLWCNARTSASGYYKKLGFSEQGEVFETPPVGPHILMYKRLT")
1.7627
>>> assay_value("SEQ ID NO: 359: GAT polypeptide (protein, 3B_12B1, GAT polypeptide) MIEVKPINAEDTYEIRHRILRPNQPLEACMYETDLLGGTFHLGGYYRGKLISIASFHQAEHSELEGQKQYQLRGMATLEGYREQKAGSTLIRHAEELLRKKGADLLWCNARTSASGYYKKLGFSEQGEVYDIPPIGPHILMYKKLT")
0.38

--- query ---
QUERY: State the recorded Kcat for this entry: SEQ ID NO: 357: GAT polypeptide (protein, 3B_10C4, GAT polypeptide) MIEVRPINAEDTYEIRHRILRPNQPLEACMYETDLLGGTFHLGGYYRGKLISIASFHQAEHSELEGQKQYQLRGMATLEGYREQKAGSTLIRHAEELLRKKGADLLWCNARTSASGYYKKLGFSEQGEAYDIPPIGPHILMYKKLT
RESULT: 0.413
